Tested on: MDA-MB-231 breast
Method: NCI tumour cell line growth inhibition, 48 h
Rule: TGI under 30 µM gives no (0), otherwise yes (1).

> print(dat)
                                    molecule      target.entity  category
 1  O=C1Nc2ccccc2/C1=C/C(=N/c1nnc(-c2ccc(Cl)cc2)s1)c1ccccc1  MDA-MB-231 breast    no (0)
 2  CCN(CC)c1ccc(/C=C/C2=NN(c3cccc(S(=O)(=O)O)c3)C3(C2)SCC(=O)N3c2nc3ccccc3s2)cc1 (stereo not given)  MDA-MB-231 breast   yes (1)
 3  C=C1CC[C@@H]2C(C)(C)[C@H](O)CC[C@@]2(C)[C@@H]1COc1ccc2ccc(=O)oc2c1  MDA-MB-231 breast   yes (1)
 4  C=C[C@]1(C)CC(O)C2C(=C)C(=O)OC2[C@H]1C(=C)C=O (stereo not given in full)  MDA-MB-231 breast    no (0)
 5    N#C/C(=C\c1ccc2c(c1)OCO2)n1nnc2ccccc21  MDA-MB-231 breast    no (0)
 6       CCOC(=O)/C=C(\C)Sc1cc(O)c2ccccc2c1O  MDA-MB-231 breast   yes (1)
 7  O=C(O)C1Cc2c([nH]c3ccccc23)C(CCCCO)N1 (stereo not given)  MDA-MB-231 breast   yes (1)
 8  O=c1cc(N2CCOCC2)[nH]c(=O)n1-c1cccc(Cl)c1  MDA-MB-231 breast   yes (1)
 9        CCc1nc(N)c2nc(-c3ccc(C#N)cc3)oc2n1  MDA-MB-231 breast   yes (1)
10  CC(=O)Oc1ccc2c3c1[C@H]1O[C@H]1c1cccc(c1-3)[C@@H]1O[C@H]21  MDA-MB-231 breast   yes (1)

====

System: HOP-62 NSCLC
Method: NCI tumour cell line growth inhibition, 48 h
Listed next: entries and their corresponding TGI.

Molecule	TGI
Cn1ccnc1C(=O)/C=C/c1ccc(C(=O)Nc2ccc(F)cc2)cc1	> 16.4 µM
CCc1c(-c2ccccc2)[nH]c2ccccc2c1=O	> 100 µM
Cc1ccc2c(=O)cc(-c3ccc(Cl)cc3)[nH]c2n1	> 100 µM
N=c1c2c(=S)n(-c3ccccc3)c(=S)n(-c3ccccc3)c2nc(SCCCN2CCCCC2)n1-c1ccccc1	3.38 µM
COc1ccc(N2C(=O)C3c4[nH]c5cccc(Cl)c5c4C4CCC(C(C)(C)C)CC4C3C2=O)cc1 (stereo not given)	53.5 µM
O=C(O)c1ccc2nc(-c3ccc(OCCCCCOc4ccc(-c5nc6ccc(C(=O)O)cc6[nH]5)cc4)cc3)[nH]c2c1	> 100 µM
CC1OC(OC2C(O)COC(OC3C(C)OC(OC4C(OC(=O)[C@]56CCC(C)(C)C[C@@H]5C5=CCC7[C@@]8(C)C[C@H](O)[C@H](OC9OC(CO)C(O)C(O)C9O)[C@@](C)(CO)[C@@H]8CC[C@@]7(C)[C@]5(C)CC6)OCC(O)C4O)C(O)C3OC3OCC(O)C(O)C3O)C2O)C(O)C(O)C1O (stereo not given in full)	35.4 µM
O=C1/C(=C\c2cccc(Oc3ccccc3)c2)S(=O)(=O)C(c2ccccc2)N1c1cc(Cl)ccc1Cl (stereo not given)	43.3 µM
O=C(O)C1Cc2c([nH]c3ccccc23)C(CCCCO)N1 (stereo not given)	> 100 µM
Cc1cc2nc3[nH]c4c(Cl)cc(Cl)cc4c3nc2cc1C	> 100 µM
CCOC(=O)/C=C(\C)Sc1cc(O)c2ccccc2c1O	39.8 µM
CC1(C)CCCC2(C)[C@@H]1CC[C@@]13CC(=O)[C@@](C)(CC[C@@H]21)C3 (stereo not given in full)	> 100 µM
Cc1ccc(N=Nc2c(O)c(C(=O)O)cc3ccccc23)c(S(=O)(=O)O)c1	> 100 µM
CC1=NOC(C)(O)/C1=N/O (stereo not given)	> 100 µM
CN1C(=O)C(O)CC1c1ccc(C(F)(F)F)cc1 (stereo not given)	> 100 µM
COc1ccc(-c2nc(S(=O)(=O)c3ccccc3)c(S(=O)CC(=O)N3CCC(C)CC3)o2)cc1 (stereo not given)	21 µM
CCOP(=O)(OCC)/C(=C\n1c(=S)[nH]c2cc(C)ccc21)C(=O)OC	> 100 µM
NC(N)=NNC(=O)CCn1[nH]c(=O)c(Cl)c(Cl)c1=O	> 100 µM
COC(=O)C1=C(C(=O)OC)C2(C)OC1C(=O)C21CC1 (stereo not given)	> 100 µM
CC1(C)COC(c2ccc(C(=O)c3ccc(Cl)cc3)cc2)=N1	> 100 µM

FYI, the data here is from PubChem BioAssay (NCI).
